Value source: patent US20030087906A1

- Tested on: SK-MEL-28
- experimentSummary: NCI 60-cell line growth inhibition assay
- Type: cell-based
- testConditions: Homo sapiens; SK-MEL-28 (Melanoma)
reportedMetric: GI50

CC(=O)N[C@H]1CC[C@H](Nc2nc(NCc3ccc(-c4ccccc4)nc3)c3ncn(C(C)C)c3n2)CC1 [Compound 87]
< 0.01 µM
Cn1cnc2c(NCc3ccccc3)nc(NCCO)nc21 [Olomoucine, reference compound]
50 µM

Now take the following compound into account.
According to the records, this compound CC[C@H](CO)Nc1nc(NCc2ccc(-c3cccc([N+](=O)[O-])c3)cc2)c2ncn(C(C)C)c2n1 [Compound 48] displays GI50 of < 0.01 µM

====

The entries below come with measured GI50 values attached.
- Test system: T-47D
- experimentSummary: NCI 60-cell line growth inhibition assay
- Assay type: cell-based
- testConditions: Homo sapiens, T47D; Breast, T-47D
Respond numerically; units are nM and should not be typed.

C=Cc1ccc(-c2ccc(CNc3nc(N[C@H](CC)CO)nc4c3ncn4C(C)C)cc2)cc1
3900
CC[C@H](CO)Nc1nc(NCc2ccc(-c3cccc(C(F)(F)F)c3)cc2)c2ncn(C(C)C)c2n1
250
CC[C@H](CO)Nc1nc(NCc2ccc(-c3ccccc3)cc2)c2ncn(C(C)C)c2n1
250

Now take the following compound into account.
According to the records, this compound CC[C@H](CO)Nc1nc(NCc2ccc(-c3ccccn3)cc2)c2ncn(C(C)C)c2n1 displays GI50 of 130

====

- Tested on: 786-0
- experimentSummary: NCI 60-cell line growth inhibition assay
- Type: cell-based
- testConditions: Homo sapiens; 786-0 (Renal)
reportedMetric: GI50 (nM)
Respond numerically; units are nM and should not be typed.

Sample answers from the record:
CC(C)n1cnc2c(NCc3ccc(-c4ccccn4)cc3)nc(N[C@H]3CC[C@H](N)CC3)nc21
40
CC(C)n1cnc2c(NCc3ccc(-c4ccsc4)cc3)nc(N[C@H]3CC[C@H](N)CC3)nc21
6.5
CC[C@H](CO)Nc1nc(NCc2ccc(-c3cccc([N+](=O)[O-])c3)cc2)c2ncn(C(C)C)c2n1
250

According to the records, this compound CC(=O)N[C@H]1CC[C@H](Nc2nc(NCc3ccc(-c4ccccc4)nc3)c3ncn(C(C)C)c3n2)CC1 displays GI50 of 47

====

- Tested on: NCI-H322M
- experimentSummary: NCI 60-cell line growth inhibition assay
- Format: cell-based
- testConditions: Homo sapiens; Non-Small Cell Lung, NCI-H322M
The entries below come with measured GI50 values attached.
Respond numerically; units are µM and should not be typed.

CC[C@H](CO)Nc1nc(NCc2ccc(-c3ccccc3)cc2)c2ncn(C(C)C)c2n1
0.16
CC[C@H](CO)Nc1nc(NCc2ccc(-c3cccc(C(F)(F)F)c3)cc2)c2ncn(C(C)C)c2n1
0.4

Now take the following compound into account.
According to the records, this compound C=Cc1ccc(-c2ccc(CNc3nc(N[C@H](CC)CO)nc4c3ncn4C(C)C)cc2)cc1 displays GI50 of 38.9

====

The entries below come with measured GI50 values attached.
- Test system: HeLa S-3 cells
- experimentSummary: Inhibition of cell growth of HeLa cells (SRB)
- Type: cell-based, human
- testConditions: 2 days of treatment, replicate experiments
- Description: Growth inhibition (GI50) values were measured with HeLa S-3 cells selected for growth on plastic. […] One day later, a control plate was fixed by addition of TCA to 5%. After five rinses with tap water the plate was air dried and stored at 4° C. Test compounds were added to the remaining plates at 10-fold dilutions between 0.01 and 100 μM. Two days later all plates were fixed as described above. […] Dye was quantified by measuring absorbance at 490 nm on a Molecular Devices kinetic microplate reader. […]
Respond numerically; units are nM and should not be typed.

According to the records, this compound CCCN[C@H]1CC[C@H](Nc2nc(NCc3ccc(-c4cc(OC)ccc4OC)cc3)c3ncn(C(C)C)c3n2)CC1 [Compound 155] displays GI50 of 800

According to the records, this compound CC(=O)N[C@H]1CC[C@H](Nc2nc(NCc3ccc(-c4ccccc4)nc3)c3ncn(C(C)C)c3n2)CC1 [Compound 87] displays GI50 of 6

According to the records, this compound COc1cccc(-c2ccc(CNc3nc(N[C@H]4CC[C@H](NC(C)=O)CC4)nc4c3ncn4C(C)C)cn2)c1 [Compound 194] displays GI50 of 40
